Target: T1, calcitonin receptor (hCTR) (human, UniProt P30988 25-474)
T1 sequence (looked up): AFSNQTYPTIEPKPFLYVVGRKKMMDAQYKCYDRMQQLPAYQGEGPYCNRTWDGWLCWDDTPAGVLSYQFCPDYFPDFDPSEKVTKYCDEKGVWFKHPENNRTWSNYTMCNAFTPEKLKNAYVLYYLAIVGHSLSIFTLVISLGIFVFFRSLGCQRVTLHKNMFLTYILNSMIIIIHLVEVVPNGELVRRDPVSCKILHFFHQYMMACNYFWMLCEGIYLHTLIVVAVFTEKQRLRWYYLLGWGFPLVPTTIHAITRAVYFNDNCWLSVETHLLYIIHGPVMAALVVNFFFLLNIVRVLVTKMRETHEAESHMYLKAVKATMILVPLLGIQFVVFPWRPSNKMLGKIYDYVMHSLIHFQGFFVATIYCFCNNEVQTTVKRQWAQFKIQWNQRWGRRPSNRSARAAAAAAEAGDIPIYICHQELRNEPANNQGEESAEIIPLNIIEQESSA
Assay: cell-based or functional assay
Square brackets hold non-standard residues; d marks the D form. Primed or numbered codes have the meaning given here. * marks the point of attachment. C18 diacid = O=C(O)CCCCCCCCCCCCCCCCC(=O)*; Inp′ = not defined here; AEEA = NCCOCCOCC(=O)O
# Fold change in activity against hCTR (benchmark D1) per record follows
propertyName: Fold change in activity against hCTR (benchmark D1) (fold)

[[record]]
binder = "{C18 diacid-Inp′}-ASQLSTAVLGRLSDELHRLQDYPRTDVGSGSP-NH2 [M17]"
measuredvalue = 0.332

[[record]]
binder = "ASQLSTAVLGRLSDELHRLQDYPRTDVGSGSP (N terminus: C18 diacid + Trx) [M15]"
measuredvalue = 0.183

[[record]]
binder = "{C18 diacid}-E[AEEA][AEEA]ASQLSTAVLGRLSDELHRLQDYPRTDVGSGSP-NH2 [M24]"
measuredvalue = 1.06

[[record]]
binder = "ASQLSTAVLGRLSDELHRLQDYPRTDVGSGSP (not fully specified; N terminus: C20 diacid + βAsp) [M12]"
measuredvalue = 1.18

[[record]]
binder = "{C18 diacid}-EASQLSTAVLGRLSDELHRLQDYPRTDVGSGSP-NH2 [M11]"
measuredvalue = 1.21

[[record]]
binder = "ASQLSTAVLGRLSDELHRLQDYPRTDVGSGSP (not fully specified; N terminus: C20 diacid + Trx+2 AEEAs) [M27]"
measuredvalue = 0.161

